Source listed as the supplement of paper PMC9170038.

System: K4 kissing-loop RNA reporter;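 also: bound reporter read as fluorescence of individual clusters on recovered sequencing chips by microscopy, with normalized cluster intensities fitted with a binding model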
Assay: apparent KD of K4 kissing-loop reporter; higher = weaker reporter binding
Details: Eterna round: R107; input ligand: FMN 200 uM
apparent KD of K4 kissing-loop reporter below 300 nM gives Not met; apparent KD of K4 kissing-loop reporter at or above it gives Met.

GACAUACCUAUGGAGGGCCGAUCGAUCAUACGAGGACCGGUACGGCCGCCACUCGUGGGCAGUGAUGUUGACCCUGGGAGGUAAG | Met
UUCAGUGAUGUUGAACACUGUUGUAUAAACUAGGAUAUGCUGAUAAGCAGAAGGAGUGAUGUUCCGUUCAUCAUCAGAAUUAAAU [KL-XFMN-A3] | Met
AUUUAGACGAGUGAUGUUCGUGUUAUUACAGAGGAUAUGCGUAAUUGCAGAAGGCUGUAUUUAUAUAUGUUAUGUGGUUUUAAAA [whbob_Ex_FMNA__2th185] | Not met
UAAUGCAUGACGGCCGCCACUAGUACUGGAGUGAUGUUGUGGUACGGCGGCAGUUUAGGGUGGACUAGGACCGGGUCAUGCAUAU [KL-XTryp-B10 #analogue] | Met
UGAUACCAGGCGGCCGCCACUCCCGCAGGUCAAAGACCUGCGAAGCUGGUUCUUCAGUGAUGUUGGAGGACCGGGCCUGGUAUCU [FiskerMod 25 - Jieux - Exclusion - Tryptophan B] | Not met
UGGAGUUGACGAAAAGUCAACUCCCGAGAAGGAGCGGACGAAAGUCCAGGUAGGUCGCUCGCUACCAGUGAUGUUGGUACUGAAA | Not met
